Field: normalised response. Provide a value for each of the compounds that follow.
# Test system: HDQ-P1
# Assay remarks: normalised response (% of control), CellTiter-Glo; higher = more viable cells (100 = DMSO, 0 = benzethonium chloride kill control)
# Measurement conditions: incubation time: 72 h
Numbers only, in %.

Known normalised response results, listed for orientation:
Return value of normalised response for input Cc1[nH]c2ccccc2c1CCNCc1ccc(/C=C/C(=O)NO)cc1 [Panobinostat] (1 nM) , no commentary.
102

Output normalised response of Cc1[nH]c2ccccc2c1CCNCc1ccc(/C=C/C(=O)NO)cc1 [Panobinostat] (0.1 nM)
98.2

Please report normalised response for the following compound: Cc1ccc(NC(=O)c2ccc(CN3CCN(C)CC3)cc2)cc1Nc1nc(-c2cccnc2)cs1 [Masitinib] (1 nM)
100

Record normalised response per entry; entries follow.
1. COCC[n+]1c2c(n(Cc3cnccn3)c1C)C(=O)c1ccccc1C2=O [YM155] (10 nM)
2. CN(C)CCOc1ccc(/C(=C(/CCCl)c2ccccc2)c2ccccc2)cc1 [Toremifene] (1000 nM)
3. COc1cc(OC2CCN(C)CC2)ccc1Nc1ncc2c(n1)n(C1CCCC1)c(=O)n2C [AZ 3146] (1 nM)
4. CNC(=O)c1ccc(N2C(=S)N(c3ccc(C#N)c(C(F)(F)F)c3)C(=O)C23CCC3)cc1F [RD162] (1000 nM)
5. Cc1ccc(NC(=O)c2ccc(CN3CCN(C)CC3)cc2)cc1Nc1nc(-c2cccnc2)cs1 [Masitinib] (10 nM)
6. COc1cc2/c(=N/c3ccc(Br)cc3F)nc[nH]c2cc1OCC1CCN(C)CC1 [Vandetanib] (0.1 nM)

79.8
96.6
98.4
94.9
93.6
93.2

Record normalised response for all entries; do not skip any.
1. COc1cc(O)c2c(c1)/C=C/C[C@H](O)[C@H](O)C(=O)/C=C\C[C@H](C)OC2=O [(5Z)-7-Oxozeaenol] (1000 nM)
2. CCn1c(-c2nonc2N)nc2cnc(Oc3cccc(NC(=O)c4ccc(OCCN5CCOCC5)cc4)c3)cc21 (10 nM)
3. COc1cc(OC2CCN(C)CC2)ccc1Nc1ncc2c(n1)n(C1CCCC1)c(=O)n2C [AZ 3146] (10 nM)
4. Cc1cc(Nc2cc(CN3CCOCC3)c3nc(C)c(Cc4ccc(Cl)cc4F)n3n2)n[nH]1 [Gandotinib] (1000 nM)
5. CN(C)c1nc(N(C)C)nc(N(C)C)n1 [Altretamine] (1000 nM)

1: 71.5; 2: 103; 3: 95.9; 4: 90; 5: 105
